- system.tested: BdorOBP83a-2 (Bactrocera dorsalis)
- Construct: gene OBP83a-2; mature protein without signal peptide
- Sequence (A0A0G2UEQ3 24-148): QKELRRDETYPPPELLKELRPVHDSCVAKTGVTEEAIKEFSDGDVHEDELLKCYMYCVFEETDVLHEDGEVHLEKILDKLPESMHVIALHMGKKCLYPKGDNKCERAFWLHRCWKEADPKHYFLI
- assay: 1-NPN fluorescence competition
- Assay type: binding
- test.conditions: 50 mM Tris-HCl pH 7.4, 25°C; 2 μM protein, 2 μM 1-NPN; competitive displacement
quantity.measured: Kd (µM)
Response body: numeric value in µM, unit text excluded.

Task: Give the reported Kd for this compound. C=CCc1ccc(OC)c(OC)c1
Output: 34

Task: Give the reported Kd for this compound. CCCC1CCCC(=O)O1 (stereo not drawn)
Output: 54.7

Task: Give the reported Kd for this compound. CCCCCC1CCC(=O)O1 (stereo not drawn)
Output: 52.5

---

- system.tested: BdorOBP83a-1 (Bactrocera dorsalis, UniProt A0A0G2UGI4)
- Construct: gene OBP83a-1; mature protein without signal peptide
- Sequence (A0A0G2UGI4 32-155): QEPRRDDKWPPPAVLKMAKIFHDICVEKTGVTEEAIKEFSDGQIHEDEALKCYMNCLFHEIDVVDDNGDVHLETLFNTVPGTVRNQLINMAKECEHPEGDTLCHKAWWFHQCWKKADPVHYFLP
- assay: 1-NPN fluorescence competition
- Assay type: binding
- test.conditions: 50 mM Tris-HCl pH 7.4, 25°C; 2 μM protein, 2 μM 1-NPN; competitive displacement
quantity.measured: Kd (mM)
Response body: numeric value in mM, unit text excluded.

Task: Give the reported Kd for this molecule. C=CCc1ccc(OC)c(OC)c1
Output: 2.53

Task: Give the reported Kd for this molecule. CCCCCC1CCC(=O)O1 (stereo not drawn)
Output: 85.9

Task: Give the reported Kd for this molecule. CCCC1CCCC(=O)O1 (stereo not drawn)
Output: 12.7

---

- system.tested: BdorOBP56h (Bactrocera dorsalis, UniProt A0A0G2UMU0)
- Construct: gene OBP56h; mature protein without signal peptide
- Sequence (A0A0G2UMU0 20-136): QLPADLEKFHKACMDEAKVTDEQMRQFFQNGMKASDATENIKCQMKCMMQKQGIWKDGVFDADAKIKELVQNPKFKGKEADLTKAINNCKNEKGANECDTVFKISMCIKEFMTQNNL
- assay: 1-NPN fluorescence competition
- Type: binding
- test.conditions: 50 mM Tris-HCl pH 7.4, 25°C; 2 μM protein, 2 μM 1-NPN; competitive displacement
quantity.measured: pKd
The quantity pKd is defined as the negative base-10 logarithm of the molar concentration.

Task: Give the reported pKd for this compound. C=CCc1ccc(OC)c(OC)c1 [methyl eugenol, 4-allyl-1,2-dimethoxybenzene]
Output: 3.24

---

- system.tested: BdorOBP84a-1 (Bactrocera dorsalis)
- Construct: gene OBP84a-1; mature protein without signal peptide
- Sequence (A0A0G2UGI7 25-167): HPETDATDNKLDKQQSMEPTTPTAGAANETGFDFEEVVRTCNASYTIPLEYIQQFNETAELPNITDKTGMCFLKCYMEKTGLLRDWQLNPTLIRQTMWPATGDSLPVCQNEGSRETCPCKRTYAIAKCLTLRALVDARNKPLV
- assay: 1-NPN fluorescence competition
- Format: binding
- test.conditions: 50 mM Tris-HCl pH 7.4, 25°C; 2 μM protein, 2 μM 1-NPN; competitive displacement
quantity.measured: pKd
The quantity pKd is defined as the negative base-10 logarithm of the molar concentration.

Task: Supply pKd measured with BdorOBP84a-1 (Bactrocera dorsalis) for C=CCc1ccc(OC)c(OC)c1 .
Output: 1.10
